# tgt: Lipoprotein-Related Phospholipase A2 (Lp-PLA2) in Human Plasma (Homo sapiens, UniProt Q13093)
# Construct: 40 μL of equally-divided and thawed mixed human plasma is pre-added
# Sequence (Q13093 22-441): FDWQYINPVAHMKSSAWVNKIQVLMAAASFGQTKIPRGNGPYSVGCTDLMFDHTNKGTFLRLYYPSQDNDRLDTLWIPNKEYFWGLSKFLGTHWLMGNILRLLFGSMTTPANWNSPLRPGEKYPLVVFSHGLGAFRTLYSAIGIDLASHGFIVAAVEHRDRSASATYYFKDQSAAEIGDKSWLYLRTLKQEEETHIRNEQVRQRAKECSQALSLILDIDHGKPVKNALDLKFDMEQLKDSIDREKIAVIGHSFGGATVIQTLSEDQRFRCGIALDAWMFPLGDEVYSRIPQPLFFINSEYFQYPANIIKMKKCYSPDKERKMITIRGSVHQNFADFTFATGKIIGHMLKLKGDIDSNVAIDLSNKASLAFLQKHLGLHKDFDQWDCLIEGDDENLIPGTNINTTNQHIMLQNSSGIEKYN
# experiment summary: Determination of Lp-PLA2 in human plasma (Thio-PAF assay)
# details: mixed human plasma, 2-thio-PAF substrate, 30 minutes pre-incubation at room temperature
measurement type: log10 of IC50 (log10 of the value in nM)

* CC12CCCN1c1cc(OCc3cc(F)c(Oc4ccnc(Cl)c4)c(F)c3)nc(=O)n1CC2 (stereo not drawn) | 1.24
* CC12CCCN1c1cc(OCc3ccc(Oc4ccnc(C(F)(F)F)c4)c(F)c3)nc(=O)n1CC2 (stereo not drawn) | 1.00
* O=c1nc(OCc2cc(F)c(Oc3ccnc(OC(F)(F)F)c3)c(F)c2)cc2n1CC[C@]13CO[C@H](CN21)C3 | 0.56
* COc1c(OCc2ccc(Oc3ccnc(C(F)(F)F)c3)c(F)c2)nc(=O)n2c1N1CCCC[C@H]1CC2 | 0.71
* CCC12CCCN1c1cc(OCCc3ccc(Oc4ccc(Cl)c(C(F)(F)F)c4)cc3)nc(=O)n1CC2 (stereo not drawn) | 2.37
* O=c1nc(OCc2cc(F)c(Oc3ccnc(Cl)c3)c(F)c2)cc2n1CCC13CC(CN21)C3 | 1.33
